- Test system: IGROV1 ovarian
- Experiment Notes: NCI-60 one-dose screen, 48 h (100 = growth as untreated, 0 = no growth, -100 = all killed)
- Study Conditions: 10 µM
This is part of a sample that, as a whole, favours compounds with a hit. Of some 83,000 tested, about 20% had one in any assay.
In this section, each of the molecules is paired with its reported growth.
Field format: number, assumed %, no unit text.

See these solved cases before continuing.
INSERT INTO measurements (molecule, assay_metric, result_units, readout_value) VALUES
  ('COc1ccc(-c2cc(-c3ccc(Cl)cc3)nc(SCCCC(=O)NO)n2)cc1', 'growth', '%', 2.96),
  ('CN(C)c1ccc(/C=N/NC(=O)c2ccccc2Nc2cccc(C(F)(F)F)c2)cc1', 'growth', '%', 69.1),
  ('O=C(CCCSc1nc(-c2ccc(Cl)cc2)cc(-c2ccc(Cl)cc2)n1)NO', 'growth', '%', 24.8),
  ('O=C(Nc1ccc(F)cc1)c1cc2ccccc2cc1O', 'growth', '%', 68.4);

// growth lookup, key: `C=CCn1c(SCC(=O)Nc2ccc(C(=O)/C=C/c3cc(OC)c(OC)c(OC)c3)cc2)nnc1-c1cc(-c2ccc(Cl)cc2)nc2ccccc12`
88.4

// growth lookup, key: `O=C(CCc1nnc2sc(-c3cc(O)c(O)c(O)c3)nn12)c1nc2ccccc2[nH]1`
109

// growth lookup, key: Cc1ccc(NCCN(C)CC(C)O)c2c(=O)c3ccccc3sc12 (stereo unspecified)
38.4

// growth lookup, key: `O=[N+]([O-])c1ccc(/C(=C/c2ccccc2)[n+]2ccccc2)cc1`
109

// growth lookup, key: `CNC(=O)c1c(I)c(NC(C)=O)c(I)c(C(=O)O)c1I`
115

// growth lookup, key: `NNC(=O)Oc1c(Cl)cc(Cl)cc1[N+](=O)[O-]`
101

// growth lookup, key: `Nc1ccc(CC[C@H]2CCC/C=C/[C@@H]3C[C@H](O)C[C@H]3[C@H](O)/C=C/C(=O)O2)cc1`
12

---

In this section, each of the molecules is paired with its reported growth.
- System: SK-OV-3 ovarian
- Experiment Notes: NCI-60 one-dose screen, 48 h (100 = growth as untreated, 0 = no growth, -100 = all killed)
- Study Conditions: 10 µM
The panel holds about 83,000 compounds, 20% with a hit somewhere; the sample as a whole holds those more often.
Field format: number, assumed %, no unit text.

See these solved cases before continuing.
INSERT INTO results (molecule, result_units, readout_value) VALUES
  ('COc1cc2c(cc1NC(=O)C(Cl)Cl)-c1ccc(NC(=O)C(Cl)Cl)cc1C2', '%', 56.3),
  ('CN1C(=O)C2(Nc3cc(Cl)ccc3S2)c2cc(Cl)ccc21 (stereo not given)', '%', 96.1),
  ('CCOc1ccccc1/C=N\N=C(\N)N/N=C/c1ccccc1OCC', '%', 10.3);

// growth lookup, key: `C[C@H]1[C@H](OC(=O)CCC(=O)O)O[C@@H]2O[C@]3(C)CC[C@H]4[C@H](C)CC[C@@H]1[C@@]24OO3`
92.9

// growth lookup, key: COC(=O)C1(O)NC(=C(C#N)C#N)C(C#N)=C1C(=O)c1ccc(OC)c(OC)c1 (stereo not given)
98.6

---

- Test system: HCC-2998 colon
- Experiment Notes: NCI-60 one-dose screen, 48 h (100 = growth as untreated, 0 = no growth, -100 = all killed)
- Study Conditions: 10 µM
Compounds without any hit were thinned out: in the full panel of roughly 83,000, 20% have a hit. Active and inactive are the calls of the source. Rule for the calls: active = growth percent below 10; inactive = the rest.
Assay Metric: growth

INSERT INTO assay_data (molecule, readout_value) VALUES
  ('CC(=O)C1N=NCC1c1ccccc1 (centres undefined)', '102% (inactive)'),
  ('Cc1ccc(Cl)cc1NC(=O)CCl', '114% (inactive)');

// growth lookup, key: CC[C@@H](C(=O)[C@H](C)[C@H](O)[C@@H](C)[C@H]1O[C@H]([C@@H](CC)C(=O)O)CC[C@H]1C)C1O[C@]2(C=C[C@@H](O)[C@]3(CC[C@@](C)([C@H]4CC[C@](O)(CC)[C@H](C)O4)O3)O2)[C@H](C)C[C@@H]1C (some centres undefined)
8.29% (active)

// growth lookup, key: CC(=O)O[C@@]12CO[C@@H]1C[C@H](O)[C@@]1(C)C(=O)[C@H](O)C3=C(C)[C@@H](OC(=O)[C@H](O)[C@@H](NC(=O)OC(C)(C)C)c4ccccc4)C[C@@](O)([C@@H](OC(=O)c4ccccc4)C12)C3(C)C (some centres undefined)
-18.8% (active)

// growth lookup, key: `COc1ccc(/C=C2/SC(=S)NC2=O)c(OC)c1OC`
82.3% (inactive)

// growth lookup, key: `COc1ccc2c(c1)C(=O)/C(=C/c1ccc([N+](=O)[O-])o1)O2`
-78.5% (active)

// growth lookup, key: `C[N+]1(CCCCC[N+]2(C)CCCC2)CCCC1`
119% (inactive)

// growth lookup, key: `COc1cc(/C=C/c2cc(/C=C/c3ccc(O)c(OC)c3)nc(N)n2)ccc1O`
0.932% (active)

// growth lookup, key: `O=C(/C=C/c1cccc(B(O)O)c1)c1cccc(B(O)O)c1`
-86.4% (active)

---

- System: NCI-H522 lung
- Experiment Notes: NCI-60 one-dose screen, 48 h (100 = growth as untreated, 0 = no growth, -100 = all killed)
- Study Conditions: 10 µM
Compounds without any hit were thinned out: in the full panel of roughly 83,000, 20% have a hit.
In this section, each of the compounds is paired with its reported growth.
Field format: number, assumed %, no unit text.

INSERT INTO assay_data (compound, result_units, readout_value) VALUES
  ('O=C(CCc1nnc2sc(-c3cc(O)c(O)c(O)c3)nn12)c1nc2ccccc2[nH]1', '%', 98.3);

// growth lookup, key: `COCCn1cc(-c2nc(-c3cccnc3)cs2)c2cc(F)ccc21`
70.6

// growth lookup, key: `O=C1/C=C/[C@@H](O)[C@@H]2C[C@@H](O)C[C@H]2/C=C/CCC[C@@H](C(F)(F)F)O1`
88

// growth lookup, key: `CC(C)(C)OC(=O)N1CCc2c(sc3ncnc(N/N=C/c4ccc(Br)cc4)c23)C1`
35.6

// growth lookup, key: `CCOS(=O)(=O)c1c(C(C)C)cc(C(C)C)cc1C(C)C`
100

// growth lookup, key: CCC(C)[C@H](NC(C)=O)C(=O)N[C@@H](CCCNC(=N)N)C(=O)N[C@@H](CCCCN)C(=O)N[C@@H](CC1CCC(O)CC1)C(=O)NC(C(=O)N[C@@H](CCSC)C(=O)N[C@@H](CCCNC(=N)N)C(=O)N[C@@]1(C)CCC/C=C\CCC[C@@](C)(C(=O)NC(C(=O)N[C@@H](CCC(=O)O)C(=O)N[C@@H](CC(C)C)C(=O)N[C@H](C(=O)N[C@@H](CCC(=O)O)C(N)=O)C(C)C)[C@@H](C)O)NC(=O)[C@H](CCC(N)=O)NC(=O)[C@H](CC(C)C)NC(=O)[C@H](CC(C)C)NC1=O)[C@@H](C)O (stereo partly specified)
102

---

- Tested on: SF-295 CNS
- Experiment Notes: NCI-60 one-dose screen, 48 h
- Study Conditions: 10 µM
This is part of a sample that, as a whole, favours compounds with a hit. Of some 83,000 tested, about 20% had one in any assay. The source made the active and inactive calls. Rule for the calls: active = growth percent below 10; inactive = the rest.
Tick one outcome: active, inactive

Past entries and their recorded results:
INSERT INTO measurements (compound, class_label) VALUES
  ('COc1cc(C(=O)/C=C/c2c[nH]c3ccccc23)cc(OC)c1OC', 'inactive'),
  ('O=C(CCCCCCC(=O)Nc1ccccc1)NO', 'active'),
  ('Clc1ccc(C2=NN=C3C(Cc4ccccc4)=Nc4ccccc4N3C2)cc1', 'inactive');

Would you mind telling me which call this test gave `CCOC(=O)CSc1nc(-c2cc(OC)ccc2OC)cc(-c2ccc(OC)cc2)c1C#N` ?
inactive

Would you mind telling me which call this test gave `Nc1nc(N)c(N)c(Nc2ccc(CCO)cc2)n1` ?
inactive

---

- Test system: HT29 colon
- Experiment Notes: NCI-60 one-dose screen, 48 h (100 = growth as untreated, 0 = no growth, -100 = all killed)
- Study Conditions: 10 µM
About 83,000 compounds went through this panel and 20% of them were active in at least one assay; those are over-represented in the sample as a whole.
Assay Metric: growth (%)
Field format: number, assumed %, no unit text.

INSERT INTO measurements (molecule, target_system, readout_value) VALUES
  ('O=C1c2ccccc2C(=O)c2c1ccc1c(=O)n(-c3ccccc3C(F)(F)F)nnc21', 'HT29 colon', 31.5),
  ('C[C@@H](C[C@H](CCO)c1ccccc1)c1ccc2ccccc2c1', 'HT29 colon', -72.8);

// growth lookup, key: CCN1C(=O)CC(SC2CC(=O)N(CC)C2=O)C1=O (configuration not stated)
79.7

// growth lookup, key: O=C(CCC(C(=O)c1ccccc1)c1ccccc1)c1ccccc1 (configuration not stated)
34.1

// growth lookup, key: `COc1ccc(/C(C#N)=C/c2ccccc2OC)cc1`
6.29
